Numbers sourced from the kinase profiling compilation of Christmann-Franck et al. (2016).

# measured-target: CSNK1A1L (human) (UniProt Q8N752)
# Sequence (Q8N752 whole entry, looked up): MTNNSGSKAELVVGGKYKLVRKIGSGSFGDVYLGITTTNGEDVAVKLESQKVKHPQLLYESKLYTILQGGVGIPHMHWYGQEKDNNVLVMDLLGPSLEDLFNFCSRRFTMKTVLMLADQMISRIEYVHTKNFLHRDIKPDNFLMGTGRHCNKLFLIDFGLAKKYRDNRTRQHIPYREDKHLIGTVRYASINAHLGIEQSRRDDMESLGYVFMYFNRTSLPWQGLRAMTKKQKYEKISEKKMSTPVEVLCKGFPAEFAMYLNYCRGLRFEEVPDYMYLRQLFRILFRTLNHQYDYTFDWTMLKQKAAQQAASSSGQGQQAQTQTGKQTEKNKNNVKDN
# test-name: KINOMEscan competition binding
# assay-conditions: compound 10.0 µM
endpoint-name: kinase still bound, per cent of control (%)
Express your answer in %, writing the number without its unit.

Value lookup for kinase still bound, per cent of control; key = "COc1cc2c(Nc3ccc(NC(=O)c4ccccc4)cc3)ncnc2cc1OCCCN1CCOCC1"
99

Now the same for COc1cc(C)c(Sc2cnc(NC(=O)c3ccc(CNC(C)C(C)C)cc3)s2)cc1C(=O)N1CCN(C(C)=O)CC1 (stereo not drawn)
100

Thanks! And "CCCS(=O)(=O)Nc1ccc(F)c(C(=O)c2c[nH]c3ncc(Cl)cc23)c1F" ?
100

Next compound up: "COc1ccc(N(C(=O)Oc2cc(C(=O)Nc3cccc(C(F)(F)F)c3)ccc2C)c2ccnc(Nc3ccc(N4CCN(C)CC4)cc3)n2)c(OC)c1"
100

Then what about the compound "CC(=O)c1c(C)c2cnc(Nc3ccc(N4CCNCC4)cn3)nc2n(C2CCCC2)c1=O" ?
62

Also check "N#C/C(=C1/Nc2ccccc2S1)c1ccnc(NCCc2cccnc2)n1"
67

Request: "CCc1nc(-c2cccc(C)c2)c(-c2ccnc(NC(=O)c3ccccc3)c2)s1"
1.3

And what about the compound "N#Cc1cc(-c2ccnc(Nc3ccc(-n4cnc(-c5cccnc5)n4)cc3)n2)cc(N2CCOCC2)c1" ?
80

Entry "CNC(=O)Nc1ccc(-c2nc(N3CC4CCC(C3)O4)c3cnn(C4CCC5(CC4)OCCO5)c3n2)cc1" please
100

Same thing, different compound: "O=c1[nH]c2ccccc2n1C1CCN(Cc2ccc(-c3nc4cc5[nH]cnc5cc4nc3-c3ccccc3)cc2)CC1"
80

// query: "CCN(CCO)CCCOc1ccc2c(Nc3cc(CC(=O)Nc4cccc(F)c4)[nH]n3)ncnc2c1"
99

Then this compound: "COc1cc2ncnc(Nc3cccc(Cl)c3)c2cc1OC"
72

Consider next the compound "Cc1cn(-c2cc(C(=O)Nc3ccc(C)c(NC(=O)c4ccno4)c3)cc(C(F)(F)F)c2)cn1" in the same way.
100

Another: "CCN1CCN(Cc2ccc(NC(=O)c3ccc(C)c(/C=C/c4cnc5[nH]ccc5c4OC)c3)cc2C(F)(F)F)CC1"
100

Moving on to "C=CC(=O)Nc1ccc(C(=O)c2sc(Nc3ccc(N4CCN(C)CC4)cc3OC)nc2N)cc1"
78

Let us now turn to "COc1cc(N2CCC(C(N)=O)CC2)ccc1Nc1nc(N)c(Cl)c(Nc2ccccc2S(=O)(=O)C(C)C)n1"
21

Please give the result for CC1=C(C(=O)Nc2cc3cn[nH]c3cc2F)C(c2ccc(C(F)(F)F)cc2)CC(=O)N1 (stereo not drawn) too.
98

Next: "CCOc1cc(N2CCC(O)CC2)ccc1Nc1ncc2c(n1)N(C)c1ccccc1C(=O)N2C"
100
